Listed below: folding stability dG values for each entry.
B1: 1ZHC (parent)
chain: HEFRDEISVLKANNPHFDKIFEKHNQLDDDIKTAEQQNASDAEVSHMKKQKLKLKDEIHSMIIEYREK

Variants of: B1
PROCEDURE SUMMARY: folding stability dG (cDNA display proteolysis); higher = more stable
DETAILS: PBS, room temperature
Response body: numeric value in kcal/mol, unit text excluded.

# example entries with known answers
>>> df
   variant_descriptor  unit_of_measurement  quantitative_readout
0                K68L             kcal/mol                 0.469
1                E57Q             kcal/mol                 0.719
2                M47I             kcal/mol                -0.393
3                Q50V             kcal/mol                 0.067
4                D18E             kcal/mol                  1.35

// folding stability dG lookup, key: `K32Y`
0.157

// folding stability dG lookup, key: `L52H`
0.494

// folding stability dG lookup, key: `L54W`
-0.913

// folding stability dG lookup, key: `Q36T`
0.782

// folding stability dG lookup, key: `D41Y`
0.879

// folding stability dG lookup, key: `D56H`
1.07
